From: patent US9409952B2

# assay.method.text: Metabolic stability in human hepatic microsome
# Type: in vitro ADME
# setup.conditions: microsomes, pH 7.4; human hepatic microsome, NADPH(+); read-out: CL NADPH(+)
Starred links: 1 amine or outer side, 2 acyl side, 3 side chain; linkers in the order of their positions; H or OH if unused. Positions of bridges follow the written chain, without caps; N, C: chain ends. Non-standard residues stand in square brackets, D forms with d. Residues, ends and D or L forms follow the SMILES beside them. *: point of attachment. NMeF = CN[C@@H](Cc1ccccc1)C(=O)O; NMeβAla = CN(CCC(=O)[*:2])[*:1]; NMeL = CN[C@@H](CC(C)C)C(=O)O; NMeV = CN[C@H](C(=O)O)C(C)C; NMeA = CN[C@@H](C)C(=O)O; Piperidide = C1CCN(*)CC1; dNMeA = CN[C@H](C)C(=O)O; Sar = CNCC(=O)O

compound: CC[C@H](C)[C@@H]1NC(=O)[C@H](C(C)C)N(C)C(=O)[C@H](C)N(C)C(=O)[C@H]([C@@H](C)O)NC(=O)[C@H](CC(C)C)N(C)C(=O)[C@H](Cc2ccccc2)NC(=O)[C@H](CC(C)C)N(C)C(=O)[C@@H](C)N(C)C(=O)C[C@@H](C(=O)N2CCCCC2)NC(=O)[C@H](C)NC(=O)[C@H](CC(C)C)N(C)C1=O [DP-417] ([dNMeA][NMeL]F[NMeL]T[NMeA][NMeV]I[NMeL]AD-Piperidide; lactam N-11)
microsomal CLint at 1 uM (µL/min/mg): 113
//
compound: CC[C@H](C)[C@@H]1NC(=O)CCN(C)C(=O)C[C@@H](C(=O)N(C)[C@@H](Cc2ccccc2)C(=O)N(C)[C@@H](Cc2ccccc2)C(=O)N[C@@H](C)C(=O)N2CCCCC2)NC(=O)[C@H](C(C)C)N(C)C(=O)[C@H](C)NC(=O)[C@H](CC(C)C)N(C)C(=O)CN(C)C(=O)[C@H]([C@@H](C)O)NC(=O)[C@H](C)N(C)C(=O)[C@H](Cc2ccccc2)N(C)C1=O [DP-495] ([NMeβAla]I[NMeF][NMeA]T[Sar][NMeL]A[NMeV]D[NMeF][NMeF]A-Piperidide; lactam N-10)
microsomal CLint at 1 uM (µL/min/mg): 7

---

# assay.method.text: PAMPA (parallel artificial membrane permeability assay)
# Format: in vitro ADME
# setup.conditions: PAMPA, pH 6.5
Starred links: 1 amine or outer side, 2 acyl side, 3 side chain; linkers in the order of their positions; H or OH if unused. Positions of bridges follow the written chain, without caps; N, C: chain ends. Non-standard residues stand in square brackets, D forms with d. Residues, ends and D or L forms follow the SMILES beside them. ξ: configuration not given here. *: point of attachment. NMeF = CN[C@@H](Cc1ccccc1)C(=O)O; NMeI = CC[C@H](C)[C@H](NC)C(=O)O; NMeβAla = CN(CCC(=O)[*:2])[*:1]; ξThr(3R) = C[C@@H](O)C(N)C(=O)O; NMeL = CN[C@@H](CC(C)C)C(=O)O; NMeV = CN[C@H](C(=O)O)C(C)C; NMeA = CN[C@@H](C)C(=O)O; Piperidide = C1CCN(*)CC1; dNMeA = CN[C@H](C)C(=O)O; β3hA = C[C@H](N)CC(=O)O; Sar = CNCC(=O)O; tBu = CC(C)(C)*
# binarize Papp at 18 hours, 50 µM: threshold 10 ×10⁻⁶ cm/s inclusive, high side satisfied, low side not satisfied

compound: CC(C)C[C@H]1C(=O)N(C)[C@@H](Cc2ccccc2)C(=O)N[C@@H](C)C(=O)N2CCC[C@H]2C(=O)N(C)[C@@H](CC(C)C)C(=O)N(C)[C@@H](Cc2ccccc2)C(=O)N(C)[C@@H](C(C)C)C(=O)N[C@H](C(=O)N2CCCCC2)CC(=O)N[C@H](C(C)C)C(=O)N[C@@H]([C@@H](C)O)C(=O)N(C)CC(=O)N1C [DP-66] ([dV]T[Sar][NMeL][NMeF]AP[NMeL][NMeF][NMeV]D-Piperidide; lactam N-11)
class.assignment: satisfied

compound: CC(C)C[C@@H]1NC(=O)[C@H](Cc2ccccc2)N(C)C(=O)[C@H]([C@@H](C)O)NC(=O)[C@H](Cc2ccccc2)N(C)C(=O)[C@H](C)N(C)C(=O)[C@H](C)NC(=O)C[C@@H](C(=O)N2CCCCC2)NC(=O)[C@@H]2CCCN2C1=O [DP-530] (A[NMeA][NMeF]T[NMeF]LPD-Piperidide; lactam N-8)
class.assignment: satisfied

compound: CC[C@H](C)[C@H](NC(=O)[C@H](C)N(C)C(=O)[C@H](CC(C)C)N(C)C(=O)[C@@H](NC(=O)[C@@H]1CC(=O)N(C)[C@@H](C)C(=O)N[C@@H]([C@@H](C)O)C(=O)N(C)[C@@H](Cc2ccccc2)C(=O)N[C@@H](C(C)C)C(=O)N2CCC[C@H]2C(=O)N(C)[C@@H](Cc2ccccc2)C(=O)N[C@@H](CC(C)C)C(=O)N(C)[C@@H](Cc2ccccc2)C(=O)N1)C(C)C)C(=O)N1CCCCC1 [DP-943] ([NMeA]T[NMeF]VP[NMeF]L[NMeF]DV[NMeL][NMeA]I-Piperidide; lactam N-9)
class.assignment: not satisfied

compound: CC[C@H](C)[C@@H]1NC(=O)[C@H](C(C)C)N(C)C(=O)[C@H](CC(C)C)N(C)C(=O)[C@H](C)N(C)C(=O)[C@H]([C@@H](C)O)NC(=O)[C@H](Cc2ccccc2)N(C)C(=O)CCN(C)C(=O)C[C@@H](C(=O)N(C)[C@@H](Cc2ccccc2)C(=O)N(C)[C@@H](Cc2ccccc2)C(=O)N[C@@H](C)C(=O)N2CCCCC2)NC(=O)[C@H](C)N(C)C(=O)[C@H](CC(C)C)N(C)C1=O [DP-297] ([NMeβAla][NMeF]T[NMeA][NMeL][NMeV]I[NMeL][NMeA]D[NMeF][NMeF]A-Piperidide; lactam N-10)
class.assignment: satisfied

compound: CC[C@H](C)[C@H]1C(=O)N[C@@H](Cc2ccccc2)C(=O)N[C@@H](Cc2ccccc2)C(=O)N2CCC[C@H]2C(=O)N[C@@H]([C@@H](C)O)C(=O)N(C)[C@@H](CC(C)C)C(=O)N[C@H](C(=O)N2CCCCC2)CC(=O)N[C@@H](C)C(=O)N[C@@H](C)C(=O)N(C)[C@@H](CC(C)C)C(=O)N[C@@H](CC(C)C)C(=O)N1C [DP-29] (AA[NMeL]L[NMeI]FFPT[NMeL]D-Piperidide; lactam N-11)
class.assignment: satisfied

compound: CC[C@H](C)[C@H]1C(=O)NCC(=O)N[C@@H](C)CC(=O)N(C)[C@H](C)C(=O)N[C@@H](Cc2ccccc2)C(=O)N(C)[C@@H](CC(C)C)C(=O)N[C@@H](COC(C)(C)C)C(=O)N[C@@H](Cc2ccccc2)C(=O)N2CCC[C@H]2C(=O)N[C@@H]([C@@H](C)O)C(=O)N[C@@H](CC(C)C)C(=O)N(C)[C@@H](C)C(=O)N1C [DP-754] (cyclo(F[NMeL]S(tBu)FPTL[NMeA][NMeI]G[β3hA][dNMeA]))
class.assignment: satisfied

compound: CC[C@H](C)[C@H]1C(=O)N[C@@H](CC(C)C)C(=O)NCC(=O)N(C)[C@@H](CC(C)C)C(=O)N[C@@H](Cc2ccccc2)C(=O)N[C@@H]([C@@H](C)O)C(=O)N(C)[C@@H](C)C(=O)N[C@H](C(=O)N2CCCCC2)CC(=O)N(C)[C@@H](C)C(=O)N[C@@H](Cc2ccccc2)C(=O)N(C)[C@@H](C(C)C)C(=O)N[C@@H](CC(C)C)C(=O)N1C [DP-89] ([NMeA]F[NMeV]L[NMeI]LG[NMeL]FT[NMeA]D-Piperidide; lactam N-12)
class.assignment: satisfied

compound: CC(C)C[C@@H]1NC(=O)[C@H](C(C)C)N(C)C(=O)[C@H](Cc2ccccc2)NC(=O)CN(C)C(=O)[C@H]([C@@H](C)O)NC(=O)[C@H](C)N(C)C(=O)[C@H](CC(C)C)N(C)C(=O)[C@@H](C(C)C)NC(=O)C[C@@H](C(=O)N2CCCCC2)NC(=O)[C@H](C)NC(=O)[C@H](CC(C)C)N(C)C1=O [DP-143] ([dV][NMeL][NMeA]T[Sar]F[NMeV]L[NMeL]AD-Piperidide; lactam N-11)
class.assignment: satisfied

compound: C=C1CCC(=O)N[C@@H](C)C(=O)N(C)[C@@H](CC(C)C)C(=O)N[C@@H]([C@@H](C)CC)C(=O)N(C)[C@@H](Cc2ccccc2)C(=O)N(C)[C@@H](CC(C)C)C(=O)N(C)[C@@H](C(C)C)C(=O)N[C@@H](Cc2ccccc2)C(=O)N[C@@H]([C@@H](C)O)C(=O)N[C@H](C(=O)N2CCCCC2)Cc2cccc1c2
class.assignment: not satisfied

compound: CC[C@H](C)[C@@H]1NC(=O)[C@@H]2CCCN2C(=O)[C@H](Cc2ccccc2)NC(=O)[C@H](Cc2ccccc2)NC(=O)[C@H](CC(C)C)NC(=O)[C@H](C(C)C)N(C)C(=O)[C@H](CC(C)C)NC(=O)[C@H](C)NC(=O)[C@H](C)NC(=O)C[C@@H](C(=O)N2CCCCC2)NC(=O)CNC(=O)C([C@@H](C)O)NC1=O (stereo partly drawn) [DP-3] (AAL[NMeV]LFFPI[ξThr(3R)]GD-Piperidide; lactam N-12)
class.assignment: not satisfied
